B1: WW domain-binding protein 4, residues 8 to 43; numbered along this chain, O75554 (parent)
chain: QPKKFCDYCKCWIADNRPSVEFHERGKNHKENVAKR

- Variants of: B1
- assayRemarks: abundance fitness (aPCA) (normalised: wild type 0, dead -1); higher = more abundant; growth selection in yeast, the domain comes from the species named
- runConditions: Homo sapiens
Record criterion met whenever abundance fitness is at -0.2 or higher; record criterion not met when lower.

Previously resolved entries follow.
QPKKFCWYCKCWIADNRPSVEFHERGKNHKENVAKR [D7W] = criterion not met
QPKKFCDYCKCWILDNRPSVEFHERGKNHKENVAKR [A14L] = criterion not met
QPKKFCDYCKCWPADNRPSVEFHERGKNHKENVAKR [I13P] = criterion not met
VPKKFCDYCKCWIADNRPSVEFHERGKNHKENVAKR [Q1V] = criterion not met
QPKKFCDYCKCWTADNRPSVEFHERGKNHKENVAKR [I13T] = criterion not met

Request: Evaluate QPKKFCDYCKCWIADPRPSVEFHERGKNHKENVAKR [N16P] : abundance fitness at minimum -0.2?
Response: criterion met

Request: Reported abundance fitness reaches at least -0.2 for QPKKFCDYCKCWIADNRPSVEFHERGKNHKMNVAKR [E31M] ?
Response: criterion met

Request: Kindly determine if abundance fitness recorded for QPKKFCDYCKCWIADNMPSVEFHERGKNHKENVAKR [R17M] is above or exactly -0.2.
Response: criterion met

Request: Could you please find out whether QPKKFCDYCKCWIADNRPSVEFHEEGKNHKENVAKR [R25E] has abundance fitness that meets -0.2 or exceeds it?
Response: criterion met

Request: Could you please find out whether QPKKFCDYCKCWIADNRPSVEFHERGKVHKENVAKR [N28V] has abundance fitness that meets -0.2 or exceeds it?
Response: criterion met

Request: In plain terms: is recorded abundance fitness at least -0.2 for QPKKFCDYCKCWIADNRPSVEFHERGLNHKENVAKR [K27L] ?
Response: criterion met

Request: Threshold query (abundance fitness >= -0.2) on QPKKFCDYCKCWIADNRPSLEFHERGKNHKENVAKR [V20L]
Response: criterion not met

Request: Is reported abundance fitness greater than or equal to -0.2 here: QPKKFCDYCKCWIADNRPSVEFHERGKNHCENVAKR [K30C]
Response: criterion met

Request: Assess whether reported abundance fitness for QPKKFCDYCKCWIADNRPSVEFHERGKNHKEAVAKR [N32A] sits at -0.2 or higher.
Response: criterion met

Request: # bool: abundance fitness of QPKKFCDYCKCWIADNRTSVEFHERGKNHKENVAKR [P18T] >= -0.2
Response: criterion not met
